Cited source: the antibiotic and cytotoxicity screens of Wong et al. (2023)

# Tested on: HSkMC (human skeletal muscle cells)
# assay-overview: cytotoxicity call (relative viability < 0.9)
# condition-set: 10 µM
About 1,500 (3.8%) of roughly 39,000 compounds were called active. Only a selection was taken, and actives are over-represented in it overall.
Possible outcomes: active, inactive

> print(dat)
                                      smiles    tgt  class.assignment
 1  COc1ccc([Si](C)(C)[C@H]2[C@H](CCO)O[C@@]3(C(=O)N(Cc4cccc(N5C(=O)c6cccc7cccc5c67)c4)c4ccccc43)[C@@H]2C)cc1  HSkMC          inactive
 2  CCCNC(=O)N(C)C[C@@H]1Oc2cc(C#Cc3cccc(F)c3)ccc2S(=O)(=O)N([C@@H](C)CO)C[C@@H]1C  HSkMC          inactive
 3  O=C(N[C@@H](c1ccc(-c2ccccc2)cc1)c1cnccn1)C1CCN(CCOc2ccc(F)cc2)CC1  HSkMC          inactive
 4  CC(C)NC(=O)N(C)C[C@@H]1Oc2ccc(NS(=O)(=O)c3cccs3)cc2CC(=O)N([C@@H](C)CO)C[C@H]1C  HSkMC          inactive
 5  C[C@H]1CN([C@@H](C)CO)C(=O)Cc2cc(NC(=O)Nc3ccc(F)cc3)ccc2O[C@H]1CN(C)Cc1ccc(C(=O)Nc2ccccc2N)cc1  HSkMC            active
 6  COc1ccc(NC(=O)Nc2ccc3c(c2)C(=O)N([C@@H](C)CO)C[C@H](C)[C@@H](CN(C)C(=O)Nc2ccc(C(F)(F)F)cc2)OCCCC[C@H](C)O3)cc1  HSkMC          inactive
 7  CCc1ccccc1C(=O)N1CCC[C@@H](Cn2cc(C(C)(C)N)nn2)C1  HSkMC          inactive
 8  CNC[C@@H]1OCCCC[C@H](C)Oc2ccc(NS(=O)(=O)c3cn(C)cn3)cc2C(=O)N([C@@H](C)CO)C[C@H]1C  HSkMC          inactive
 9  C[C@@H]1CN([C@H](C)CO)C(=O)Cc2cc(NC(=O)Nc3ccccc3)ccc2O[C@H]1CN(C)S(C)(=O)=O  HSkMC          inactive
10  Cc1cc(-c2cc(OC(=O)c3ccccc3)ccc2Cl)cc2nnc(Nc3ccc(OCCN4CCCC4)cc3)nc12  HSkMC            active
11  C[C@H](CO)N1C[C@H](C)[C@@H](CN(C)C(=O)Cc2ccncc2)Oc2cc(C#CC3CCCCC3)ccc2S1(=O)=O  HSkMC          inactive
12  C[C@H](CO)N1C[C@H](C)[C@H](CN(C)C(=O)Nc2ccc(C(F)(F)F)cc2)OCCCC[C@H](C)Oc2ccc(NC(=O)c3ccccc3)cc2C1=O  HSkMC          inactive
13  C[C@@H]1CN([C@@H](C)CO)C(=O)c2cc(NS(=O)(=O)c3cccs3)ccc2O[C@@H](C)CCCCO[C@@H]1CN(C)Cc1ccccc1  HSkMC          inactive
14  O=C(N[C@@H](c1ccccc1)c1ccc2ccccc2n1)C1CCN(CCOc2ccc(Cl)cc2)CC1  HSkMC          inactive
15  C[C@H](CO)N1C[C@H](C)[C@H](CN(C)Cc2ccc(-c3ccccc3)cc2)Oc2ccc(NC(=O)Nc3ccccc3)cc2CC1=O  HSkMC          inactive
16  CCc1nc2ccc(C(=O)NCc3ccc4c(c3)OCO4)cn2c1N(CC)Cc1cccc(Br)c1  HSkMC          inactive
17  COc1ccc(NC(=O)Nc2ccc3c(c2)[C@H]2C[C@H](CC(=O)NCc4ccncc4)O[C@H](CO)[C@H]2O3)cc1  HSkMC          inactive
18  COc1ccc([Si](C)(C)[C@H]2[C@H](CCn3cc(CCO)nn3)O[C@@]3(C(=O)N(Cc4cccc(N5C(=O)c6cccc7cccc5c67)c4)c4ccccc43)[C@@H]2C)cc1  HSkMC          inactive
19  COc1ccc(NC(=O)N(C)C[C@@H]2OCc3cnnn3CCCC(=O)N([C@H](C)CO)C[C@@H]2C)c(OC)c1  HSkMC          inactive
20  COc1ccc(NC(=O)N(C)C[C@H]2Oc3c(NC(=O)Nc4ccc(C(F)(F)F)cc4)cccc3C(=O)N([C@@H](C)CO)C[C@H]2C)cc1  HSkMC          inactive
21  C[C@H]1CN([C@@H](C)CO)C(=O)Cc2cc(NC(=O)Nc3ccccc3)ccc2O[C@H]1CN(C)S(C)(=O)=O  HSkMC          inactive
22  C[C@H](CO)N1C[C@H](C)[C@H](CN(C)S(C)(=O)=O)Oc2ccc(NC(=O)Nc3ccccc3)cc2CC1=O  HSkMC            active
23  CN1C(=O)C[C@@H]2[C@@H]1CCN2C(=O)c1ccc[nH]1  HSkMC          inactive
24  CC(C)NC(=O)Nc1ccc2c(c1)C(=O)N([C@H](C)CO)C[C@@H](C)[C@@H](CN(C)S(=O)(=O)c1cn(C)cn1)O2  HSkMC          inactive
